- System: IL-17 production by CD4 T cells
- assayNotes: Human Th17 Assay
- Type: cell-based
- measurementConditions: Homo sapiens, CD4+ T, 72 h, read-out: Human Th17 Assay, IC50
- Procedure: The human Th17 assay tests the effect of RORγt modulatory compounds on IL-17 production by CD4 T cells under conditions which favor Th17 differentiation. […] Supernatants were collected and the accumulated IL-17 in culture was measured by using MULTI-SPOT® Cytokine Plate following manufacture's instruction (Meso Scale Discovery). The plate was read using Sector Imager 6000, and IL-17 concentration was extrapolated from the standard curve. The IC50s were determined by GraphPad.
valueKind: pIC50
Just so you know, pIC50 here is -log10 of the concentration in molar units; reply with that number alone.

Record request: pIC50 value, item C[C@H](NS(=O)(=O)c1ccc(-c2sc(-c3nnc(C(C)(C)O)o3)nc2C(=O)N2CCC(F)(F)CC2)c(Cl)c1Cl)C(F)(F)F 7.82
